The listing below reports Ki for compounds tested on 5-hydroxytryptamine receptor 1A (Homo sapiens, UniProt P08908).
Sequence (P08908 whole entry): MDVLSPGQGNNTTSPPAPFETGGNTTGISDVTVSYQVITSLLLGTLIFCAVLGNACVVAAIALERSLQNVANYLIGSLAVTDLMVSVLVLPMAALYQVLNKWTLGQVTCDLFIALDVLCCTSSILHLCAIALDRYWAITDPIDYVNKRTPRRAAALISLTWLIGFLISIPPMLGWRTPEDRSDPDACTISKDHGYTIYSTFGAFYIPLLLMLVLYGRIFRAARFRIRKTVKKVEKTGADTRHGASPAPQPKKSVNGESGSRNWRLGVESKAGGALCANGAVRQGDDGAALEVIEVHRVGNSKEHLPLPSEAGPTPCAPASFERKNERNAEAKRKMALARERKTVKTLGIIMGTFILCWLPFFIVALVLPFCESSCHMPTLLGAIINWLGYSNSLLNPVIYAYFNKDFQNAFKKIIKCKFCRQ
endpointName: Ki (nM)

{"columns": ["compound", "unitAbbreviation", "prefixOperator", "numericResult"],
 "data": [
  ["COc1ccccc1OCCNC[C@@H]1COCC(c2ccccc2)(c2ccccc2)O1", "nM", "=", 0.661],
  ["c1ccc(OCCNC[C@@H]2CO[C@@H](c3ccccc3)CO2)cc1 (relative stereo)", "nM", "=", 148],
  ["COc1ccccc1OCCNC[C@@H]1COC[C@H](c2ccccc2)O1 (relative stereo)", "nM", "=", 4.17],
  ["c1ccc(OCCNC[C@@H]2COC(c3ccccc3)(c3ccccc3)CO2)cc1", "nM", "=", 37.2],
  ["c1ccc(OCCNC[C@@H]2COCC(c3ccccc3)(c3ccccc3)O2)cc1", "nM", "=", 0.589],
  ["COc1cccc(OC)c1OCCNC[C@@H]1COC[C@@H](c2ccccc2)O1 (relative stereo)", "nM", "=", 417],
  ["COc1cccc(OC)c1OCCNC[C@@H]1COC[C@H](c2ccccc2)O1 (relative stereo)", "nM", ">", 1000],
  ["COc1ccccc1OCCNC[C@@H]1COC(c2ccccc2)(c2ccccc2)CO1", "nM", "=", 7.59],
  ["c1ccc(OCCNC[C@@H]2COC[C@@H](c3ccccc3)O2)cc1 (relative stereo)", "nM", "=", 52.5],
  ["COc1ccccc1OCCNC[C@@H]1CO[C@H](c2ccccc2)CO1 (relative stereo)", "nM", "=", 3.47],
  ["COc1cccc(OC)c1OCCNC[C@@H]1CO[C@@H](c2ccccc2)CO1 (relative stereo)", "nM", "=", 234],
  ["c1ccc(OCCNC[C@@H]2COC[C@H](c3ccccc3)O2)cc1 (relative stereo)", "nM", "=", 53.7],
  ["COc1cccc(OC)c1OCCNC[C@@H]1CO[C@H](c2ccccc2)CO1 (relative stereo)", "nM", "=", 257],
  ["COc1cccc(OC)c1OCCNC[C@@H]1COC(c2ccccc2)(c2ccccc2)CO1", "nM", "=", 229],
  ["COc1ccccc1OCCNC[C@@H]1COC[C@@H](c2ccccc2)O1 (relative stereo)", "nM", "=", 6.03],
  ["COc1cccc(OC)c1OCCNC[C@@H]1COCC(c2ccccc2)(c2ccccc2)O1", "nM", "=", 1.41],
  ["c1ccc(OCCNC[C@@H]2CO[C@H](c3ccccc3)CO2)cc1 (relative stereo)", "nM", "=", 25.7]
]}

meta.source: ChEMBL document CHEMBL1140161
